Where do these numbers come from? They come from patent US20250170266A1.

Molecular target: hTLR7 (Homo sapiens)
Sequence (Q9NYK1 27-1049): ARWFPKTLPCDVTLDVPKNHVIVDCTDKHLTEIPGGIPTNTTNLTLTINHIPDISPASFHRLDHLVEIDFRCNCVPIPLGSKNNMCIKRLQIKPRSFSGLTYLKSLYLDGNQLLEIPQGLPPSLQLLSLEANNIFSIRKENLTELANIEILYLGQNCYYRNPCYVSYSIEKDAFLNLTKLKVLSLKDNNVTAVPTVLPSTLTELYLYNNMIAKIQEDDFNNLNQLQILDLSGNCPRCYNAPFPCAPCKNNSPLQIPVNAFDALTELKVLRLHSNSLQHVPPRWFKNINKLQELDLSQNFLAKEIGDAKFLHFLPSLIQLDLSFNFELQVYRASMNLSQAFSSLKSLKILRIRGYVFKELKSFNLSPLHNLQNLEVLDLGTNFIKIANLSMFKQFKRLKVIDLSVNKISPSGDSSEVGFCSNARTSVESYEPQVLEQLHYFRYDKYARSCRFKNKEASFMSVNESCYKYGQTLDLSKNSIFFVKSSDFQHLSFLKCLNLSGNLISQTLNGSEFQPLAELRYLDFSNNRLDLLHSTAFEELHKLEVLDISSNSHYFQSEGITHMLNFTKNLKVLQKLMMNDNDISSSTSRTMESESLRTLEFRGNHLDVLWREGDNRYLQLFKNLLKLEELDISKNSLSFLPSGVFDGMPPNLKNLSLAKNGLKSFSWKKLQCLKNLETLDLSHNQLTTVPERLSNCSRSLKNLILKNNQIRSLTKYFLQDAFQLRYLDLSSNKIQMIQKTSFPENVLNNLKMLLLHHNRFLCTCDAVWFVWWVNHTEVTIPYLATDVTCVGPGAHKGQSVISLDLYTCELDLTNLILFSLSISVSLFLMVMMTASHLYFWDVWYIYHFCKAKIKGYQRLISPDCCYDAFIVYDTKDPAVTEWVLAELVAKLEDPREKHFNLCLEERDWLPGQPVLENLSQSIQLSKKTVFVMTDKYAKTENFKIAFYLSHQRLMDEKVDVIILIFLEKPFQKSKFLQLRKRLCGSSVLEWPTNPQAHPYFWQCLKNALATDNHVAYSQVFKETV
Assay: Reporter Gene Assay (RGA), HEK-Blue hTLR7 reporter cells, SEAP readout
Settings: overnight incubation, SEAP absorbance 620 nm
Entries get a class label from measured EC50. See ranges: category 1 = under 7 nM, category 2 = from 7 nM up to 60 nM, category 3 = 60 nM and over

molecule	test target	class label
CCOc1nc(N)c2nc(O)n(Cc3ccc(CN4CCC5(CCNCC5)CC4)cc3OC)c2n1	hTLR7 (Homo sapiens)	category 1
CCCCOc1nc(N)c2nc(O)n(Cc3ccc(CCN4CCNCC4)cc3OC)c2n1	hTLR7 (Homo sapiens)	category 2
CCOc1nc(N)c2nc(O)n(Cc3ccc(CNCc4ccc(CN5CCNCC5)cc4)cc3OC)c2n1	hTLR7 (Homo sapiens)	category 3
CCCCOc1nc(N)c2nc(O)n(Cc3ccc(N4CCNCC4)cc3OC)c2n1	hTLR7 (Homo sapiens)	category 1
CCCCOc1nc(N)c2nc(O)n(Cc3ccc(N4CCC5(CCNCC5)CC4)nc3)c2n1	hTLR7 (Homo sapiens)	category 1
CCOc1nc(N)c2nc(O)n(Cc3ccc(CNC4CNC4)cc3OC)c2n1	hTLR7 (Homo sapiens)	category 3
CCOc1nc(N)c2nc(O)n(Cc3ccc(CNC4CCNC4)cc3OC)c2n1 (stereo in doubt)	hTLR7 (Homo sapiens)	category 3
CCOc1nc(N)c2nc(O)n(Cc3ccc(CNCCN)cc3OC)c2n1	hTLR7 (Homo sapiens)	category 3
CCOc1nc(N)c2nc(O)n(Cc3ccc(CN4CCNCC4)cc3OC)c2n1	hTLR7 (Homo sapiens)	category 1
CCOc1nc(N)c2nc(O)n(Cc3ccc(CNCC(C)(C)O)cc3OC)c2n1	hTLR7 (Homo sapiens)	category 2
CCOc1nc(N)c2nc(O)n(Cc3ccc(CN[C@H](CO)Cc4ccccc4)cc3OC)c2n1	hTLR7 (Homo sapiens)	category 1
CCOc1nc(N)c2nc(O)n(Cc3ccc(CNCCN4CCSCC4)cc3OC)c2n1	hTLR7 (Homo sapiens)	category 2
CCOc1nc(N)c2nc(O)n(Cc3ccc(CNCCN4CCNCC4)cc3OC)c2n1	hTLR7 (Homo sapiens)	category 3
CCOc1nc(N)c2nc(O)n(Cc3ccc(CN4CCC(C5CCNCC5)CC4)cc3OC)c2n1	hTLR7 (Homo sapiens)	category 2
CCOc1nc(N)c2nc(O)n(Cc3ccc(CNCc4ccc(CN(CC(=O)O)CC(=O)O)cc4)cc3OC)c2n1	hTLR7 (Homo sapiens)	category 2

====

Test system: Mouse splenocytes
Experiment: Mouse Splenocyte Assay, cytokine release (HTRF)
Format: cell-based
Conditions: Splenocyte, 24 hours, mIL6 in supernatant, read-out: Splenocyte IL6 EC50
Reported EC50 values for the following compounds.

compound	endpoint unit	EC50
CCCCOc1nc(N)c2nc(O)n(Cc3ccc(CN4CCC(CN)CC4)cc3OC)c2n1 [Compound 156]	nM	2.5
CCOc1nc(N)c2nc(O)n(Cc3ccc(CNCc4ccc(CN5CCC(N)CC5)cc4)cc3OC)c2n1 [Compound 144]	nM	372
CCOc1nc(N)c2nc(O)n(Cc3ccc(CNCCCCCO)cc3OC)c2n1 [Compound 103]	nM	1330

====

The following molecules are listed with their measured EC50 values.
Biological target: mTLR7 (Mus musculus)
Experiment: Reporter Gene Assay (RGA), HEK-Blue mTLR7 reporter cells, SEAP readout
Conditions: overnight incubation, SEAP absorbance 620 nm

mol	test target	endpoint unit	sign	EC50
CCOc1nc(N)c2nc(O)n(Cc3ccc(CN4CCNCC4)cc3)c2n1	mTLR7 (Mus musculus)	nM	=	83.8
CCCCCNc1nc(N)c2nc(O)n(Cc3ccc(CN)cc3)c2n1	mTLR7 (Mus musculus)	nM	=	60.6
CCCCOc1nc(N)c2nc(O)n(Cc3ccc(CN4CCC(N)CC4)cc3OC)c2n1	mTLR7 (Mus musculus)	nM	=	9.2
CCCCCNc1nc(N)c2nc(O)n(Cc3ccc(CNC4CCNCC4)cc3)c2n1	mTLR7 (Mus musculus)	nM	=	35.9
CCCCOc1nc(N)c2nc(O)n(Cc3ccc(CCCN4CCC(N)CC4)cc3OC)c2n1	mTLR7 (Mus musculus)	nM	<	0.1
CCCCOc1nc(N)c2nc(O)n(Cc3ccc(CNC4CCC4)cc3OC)c2n1	mTLR7 (Mus musculus)	nM	<	0.1
CCOc1nc(N)c2nc(O)n(Cc3ccc(CNCCCN4CCN(CCCN)CC4)cc3OC)c2n1	mTLR7 (Mus musculus)	nM	=	1040
CCCCOc1nc(N)c2nc(O)n(Cc3ccc(CCCN4CCC(CCN)CC4)cc3OC)c2n1	mTLR7 (Mus musculus)	nM	<	0.1
CCOc1nc(N)c2nc(O)n(Cc3ccc(CNCc4ccccc4)cc3OC)c2n1	mTLR7 (Mus musculus)	nM	=	0.3
CCOc1nc(N)c2nc(O)n(Cc3ccc(CNCc4cccnc4)cc3OC)c2n1	mTLR7 (Mus musculus)	nM	=	5.9
CCCCOc1nc(N)c2nc(O)n(Cc3ccc(CN4CCC(CCN)CC4)cc3OC)c2n1	mTLR7 (Mus musculus)	nM	=	0.1
CCOc1nc(N)c2nc(O)n(Cc3ccc(CN4CCNCC4)nc3)c2n1	mTLR7 (Mus musculus)	nM	=	681
CCOc1nc(N)c2nc(O)n(Cc3ccc(CNCc4ccc(CN)cc4)cc3OC)c2n1	mTLR7 (Mus musculus)	nM	=	2.4
CCOc1nc(N)c2nc(O)n(Cc3ccc(CN[C@@H](CO)C(=O)O)cc3OC)c2n1	mTLR7 (Mus musculus)	nM	=	1960
CCCN(CCC)Cc1ccc(CNCc2ccc(Cn3c(O)nc4c(N)nc(OCC)nc43)c(OC)c2)cc1	mTLR7 (Mus musculus)	nM	=	1
CCCCCNc1nc(N)c2nc(O)n(Cc3ccc(CNC4CC(F)(F)C4)cc3)c2n1	mTLR7 (Mus musculus)	nM	=	11.1
CCCCOc1nc(N)c2nc(O)n(Cc3ccc(CCNC4CCNCC4)cc3OC)c2n1	mTLR7 (Mus musculus)	nM	=	422

====

Molecular target: mTLR7 (Mus musculus)
Experiment: Reporter Gene Assay (RGA), HEK-Blue mTLR7 reporter cells, SEAP readout
Settings: overnight incubation, SEAP absorbance 620 nm
# reported EC50; entries follow

mol	sign	EC50 [nM]
CCOc1nc(N)c2nc(O)n(Cc3ccc(CNCc4ccc(CN5CCC(N)CC5)cc4)cc3OC)c2n1	=	1330
CCCCOc1nc(N)c2nc(O)n(Cc3ccc(CNC)cc3OC)c2n1	=	3.3
CCCCOc1nc(N)c2nc(O)n(Cc3ccc(N4CCNCC4)cc3OC)c2n1	=	3
CCCCOc1nc(N)c2nc(O)n(Cc3ccc(CCCN4CCNCC4)cc3OC)c2n1	=	0.6
CCOc1nc(N)c2nc(O)n(Cc3ccc(CN[C@H](C(=O)O)[C@@H](C)CC)cc3OC)c2n1	=	772
CCCCOc1nc(N)c2nc(O)n(Cc3ccc(N4CCC5(CCNCC5)CC4)cc3OC)c2n1	=	1.1
CCCCOc1nc(N)c2nc(O)n(Cc3ccc(CCCNC4CCNCC4)cc3OC)c2n1	<	0.1
CCOc1nc(N)c2nc(O)n(Cc3ccc(CNCc4ccc(CN5CCC(NC(=O)OC(C)(C)C)CC5)cc4)cc3OC)c2n1	=	15.1

====

Molecular target: mTLR7 (Mus musculus, UniProt P58681)
Sequence (P58681 27-1050): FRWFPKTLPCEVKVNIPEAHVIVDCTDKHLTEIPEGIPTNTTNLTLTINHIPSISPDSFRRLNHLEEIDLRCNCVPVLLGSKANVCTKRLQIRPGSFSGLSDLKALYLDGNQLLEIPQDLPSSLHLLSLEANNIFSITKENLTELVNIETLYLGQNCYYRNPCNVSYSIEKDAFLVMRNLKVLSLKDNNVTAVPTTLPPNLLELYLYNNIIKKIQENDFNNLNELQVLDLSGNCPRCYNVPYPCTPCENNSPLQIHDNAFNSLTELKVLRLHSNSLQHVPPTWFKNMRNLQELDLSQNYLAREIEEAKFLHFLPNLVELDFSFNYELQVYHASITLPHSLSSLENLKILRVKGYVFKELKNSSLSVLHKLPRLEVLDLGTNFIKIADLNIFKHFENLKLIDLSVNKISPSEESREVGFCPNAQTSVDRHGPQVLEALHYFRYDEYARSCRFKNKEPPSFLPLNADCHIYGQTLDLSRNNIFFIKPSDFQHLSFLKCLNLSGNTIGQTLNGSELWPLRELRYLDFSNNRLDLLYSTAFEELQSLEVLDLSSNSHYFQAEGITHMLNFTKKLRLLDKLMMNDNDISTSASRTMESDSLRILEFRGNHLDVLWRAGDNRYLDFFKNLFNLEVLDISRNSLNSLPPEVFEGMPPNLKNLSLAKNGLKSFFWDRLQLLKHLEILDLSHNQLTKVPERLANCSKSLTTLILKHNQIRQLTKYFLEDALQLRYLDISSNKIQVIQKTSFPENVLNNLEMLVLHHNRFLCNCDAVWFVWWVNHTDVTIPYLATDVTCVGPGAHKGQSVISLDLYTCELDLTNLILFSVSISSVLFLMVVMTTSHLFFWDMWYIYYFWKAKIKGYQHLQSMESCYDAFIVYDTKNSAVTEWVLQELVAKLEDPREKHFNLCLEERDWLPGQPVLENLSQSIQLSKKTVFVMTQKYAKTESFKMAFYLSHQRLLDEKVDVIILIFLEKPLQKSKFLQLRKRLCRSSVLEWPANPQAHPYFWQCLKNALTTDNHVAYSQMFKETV
Assay: Reporter Gene Assay (RGA), HEK-Blue mTLR7 reporter cells, SEAP readout
Conditions: overnight incubation, SEAP absorbance 620 nm
readout type: EC50

compound	readout type	reading
CCOc1nc(N)c2nc(O)n(Cc3ccc(CN4CCC(N)CC4)cc3F)c2n1	EC50	263 nM
CCOc1nc(N)c2nc(O)n(Cc3ccc(CN4CCNCC4)cc3F)c2n1	EC50	31.7 nM
CCCCOc1nc(N)c2nc(O)n(Cc3ccc(CNCC(C)(C)O)cc3OC)c2n1	EC50	2.9 nM
CCOc1nc(N)c2nc(O)n(Cc3ccc(CNC4CC5(CNC5)C4)cc3OC)c2n1	EC50	1270 nM
CCOc1nc(N)c2nc(O)n(Cc3ccc(CN4CCN(CCNC(=O)CC(SC[C@@H](N)C(=O)O)C(=O)O)CC4)cc3OC)c2n1 (some centres unmarked)	EC50	662 nM
CCOc1nc(N)c2nc(O)n(Cc3ccc(CN4CCC(CCN)CC4)cc3OC)c2n1	EC50	34.8 nM
CCOc1nc(N)c2nc(O)n(Cc3ccc(CNCc4ccc(CN5CCNCC5)cc4)cc3OC)c2n1	EC50	142 nM
CCCCCNc1nc(N)c2nc(O)n(Cc3ccc(CN4CCNCC4)cc3)c2n1	EC50	9 nM

====

Recorded EC50 for the following compounds
Tested on: Mouse splenocytes
Assay: Mouse Splenocyte Assay, cytokine release (HTRF)
Format: cell-based
Conditions: Splenocyte, 24 hours, mIL6 in supernatant, read-out: Splenocyte IL6 EC50
readout type: EC50 (nM)

compound	readout type	endpoint unit	reading
CCCCOc1nc(N)c2nc(O)n(Cc3ccc(CCN4CCNCC4)cc3OC)c2n1	EC50	nM	873
CCOc1nc(N)c2nc(O)n(Cc3ccc(CNCc4ccccc4)cc3OC)c2n1	EC50	nM	33.3
CCOc1nc(N)c2nc(O)n(Cc3ccc(CNCCN)cc3OC)c2n1	EC50	nM	20.8
CCOc1nc(N)c2nc(O)n(Cc3ccc(CNCCN4CCSCC4)cc3OC)c2n1	EC50	nM	230
CCCCCNc1nc(N)nc2ccn(Cc3ccc(CN4CCN(CCNC(=O)CC(SCC(N)C(=O)O)C(=O)O)CC4)cc3OC)c12 (centres unmarked) [Benchmark, reference compound]	EC50	nM	222
CCCN(CCC)Cc1ccc(CNCc2ccc(Cn3c(O)nc4c(N)nc(OCC)nc43)c(OC)c2)cc1	EC50	nM	1.3
CCOc1nc(N)c2nc(O)n(Cc3ccc(CN4CCN(CCNC(=O)CC(SC[C@@H](N)C(=O)O)C(=O)O)CC4)cc3OC)c2n1 (some centres unmarked)	EC50	nM	1180
CCOc1nc(N)c2nc(O)n(Cc3ccc(CNCc4ccc(CN5CCOCC5)cc4)cc3OC)c2n1	EC50	nM	9.9
CCOc1nc(N)c2nc(O)n(Cc3ccc(CNCCCN4CCN(CCCN)CC4)cc3OC)c2n1	EC50	nM	1360
CCCCOc1nc(N)c2nc(O)n(Cc3ccc(CCCN4CCC(N)CC4)cc3OC)c2n1	EC50	nM	2.1
CCCCOc1nc(N)c2nc(O)n(Cc3ccc(CCN4CCC(N)CC4)cc3OC)c2n1	EC50	nM	235
CCCCOc1nc(N)c2nc(O)n(Cc3ccc(CCCN4CCC(CCN)CC4)cc3OC)c2n1	EC50	nM	6
CCCCOc1nc(N)c2nc(O)n(Cc3ccc(N4CCNCC4)nc3)c2n1	EC50	nM	18
CCCCCNc1nc(N)c2nc(O)n(Cc3ccc(CNCCN)cc3)c2n1	EC50	nM	80.6
CCOc1nc(N)c2nc(O)n(Cc3ccc(CN(CC)CC)cc3OC)c2n1	EC50	nM	99.7
CCOc1nc(N)c2nc(O)n(Cc3ccc(CNCc4ccc(CN(CC(=O)O)CC(=O)O)cc4)cc3OC)c2n1	EC50	nM	68.8
CCOc1nc(N)c2nc(O)n(Cc3ccc(CNCc4ccc(CNCc5ccc(CN)cc5)cc4)cc3OC)c2n1	EC50	nM	12.9
CCOc1nc(N)c2nc(O)n(Cc3ccc(CN)cc3OC)c2n1	EC50	nM	145
CCCCOc1nc(N)c2nc(O)n(Cc3ccc(CN4CCC(N)CC4)cc3OC)c2n1	EC50	nM	148
CCCCOc1nc(N)c2nc(O)n(Cc3ccc(CCCNC4CCNCC4)cc3OC)c2n1	EC50	nM	5.8
CCOc1nc(N)c2nc(O)n(Cc3ccc(CN4CCNCC4)cc3OC)c2n1	EC50	nM	2940
CCOc1nc(N)c2nc(O)n(Cc3ccc(CN4CCNCC4)cc3)c2n1	EC50	nM	2130
CCOc1nc(N)c2nc(O)n(Cc3ccc(CNCc4cccnc4)cc3OC)c2n1	EC50	nM	48.2
CCOc1nc(N)c2nc(O)n(Cc3ccc(CNCCN4CCOCC4)cc3OC)c2n1	EC50	nM	137
CCCCCNc1nc(N)c2nc(O)n(Cc3ccc(CN(CC)CC)cc3)c2n1	EC50	nM	20.4
CCCC(CO)Oc1nc(N)c2nc(O)n(Cc3ccc(CN)cc3)c2n1 (centres unmarked)	EC50	nM	2.4
CCOc1nc(N)c2nc(O)n(Cc3ccc(CNCc4ccc(CN5CCNCC5)cc4)cc3OC)c2n1	EC50	nM	338
CCCCOc1nc(N)c2nc(O)n(Cc3ccc(CCN4CCC(CCN)CC4)cc3OC)c2n1	EC50	nM	245
CCOc1nc(N)c2nc(O)n(Cc3ccc(CNCCC(=O)N[C@@H](Cc4c[nH]cn4)C(=O)O)cc3OC)c2n1	EC50	nM	2180
CCOc1nc(N)c2nc(O)n(Cc3ccc(CNC4CC(F)(F)C4)cc3OC)c2n1	EC50	nM	166
CCOc1nc(N)c2nc(O)n(Cc3ccc(CNCCCC[C@H](N)C(=O)O)cc3OC)c2n1	EC50	nM	901
CCCCCNc1nc(N)c2nc(O)n(Cc3ccc(CN4CCC(N)CC4)cc3)c2n1	EC50	nM	198
